Recorded values, source ChEMBL document CHEMBL1128615.

I'd appreciate it if you could supply C50 values for the items below.
Tested on: Nucleic Acid
Experiment: Compound was evaluated for binding affinity to alternating poly(dA)-poly(dT) polymer using ethidium displacement assay
Assay type: nucleic-acid assay
Express your answer in µM, writing the number without its unit.

// returns C50 for CN(C)CCCNC(=O)c1cc(NC(=O)c2cc(NC(=O)c3ccc(N(CCCl)CCCl)cc3)cn2CCCCCCCCn2cc(NC(=O)c3ccc(N(CCCl)CCCl)cc3)cc2C(=O)Nc2cc(C(=O)NCCCN(C)C)n(C)c2)cn1C with Nucleic Acid; value = 0.535

// returns C50 for CN(C)CCCNC(=O)c1cc(NC(=O)c2cc(NC(=O)c3ccc(N(CCCl)CCCl)cc3)cn2CCCCCCCCCCCn2cc(NC(=O)c3ccc(N(CCCl)CCCl)cc3)cc2C(=O)Nc2cc(C(=O)NCCCN(C)C)n(C)c2)cn1C with Nucleic Acid; value = 1.2

// returns C50 for CN(C)CCCNC(=O)c1cc(NC(=O)c2cc(NC(=O)c3ccc(N(CCCl)CCCl)cc3)cn2CCCCCCCCCCCCn2cc(NC(=O)c3ccc(N(CCCl)CCCl)cc3)cc2C(=O)Nc2cc(C(=O)NCCCN(C)C)n(C)c2)cn1C with Nucleic Acid; value = 1.31

* * *

Test system: Nucleic Acid
Experiment: Compound was evaluated for its binding affinity to homo poly(dA-dT) polymer using ethidium displacement assay
Format: nucleic-acid assay
Rule: C50 below 1 µM gives t. Equal to or above 1 µM gives f.

In: Hello, I'm reviewing records and need to know if C50 of CN(C)CCCNC(=O)c1cc(NC(=O)c2cc(NC(=O)c3ccc(N(CCCl)CCCl)cc3)cn2CCCCCCCCCCCCn2cc(NC(=O)c3ccc(N(CCCl)CCCl)cc3)cc2C(=O)Nc2cc(C(=O)NCCCN(C)C)n(C)c2)cn1C is below 1 µM. Could you check?
Out: f

In: Hello, I'm reviewing records and need to know if C50 of CN(C)CCCNC(=O)c1cc(NC(=O)c2cc(NC(=O)c3ccc(N(CCCl)CCCl)cc3)cn2CCCCCCCCn2cc(NC(=O)c3ccc(N(CCCl)CCCl)cc3)cc2C(=O)Nc2cc(C(=O)NCCCN(C)C)n(C)c2)cn1C is below 1 µM. Could you check?
Out: t

In: Hello, I'm reviewing records and need to know if C50 of CN(C)CCCNC(=O)c1cc(NC(=O)c2cc(NC(=O)c3ccc(N(CCCl)CCCl)cc3)cn2CCCCCCCCCCn2cc(NC(=O)c3ccc(N(CCCl)CCCl)cc3)cc2C(=O)Nc2cc(C(=O)NCCCN(C)C)n(C)c2)cn1C is below 1 µM. Could you check?
Out: f

In: Hello, I'm reviewing records and need to know if C50 of CN(C)CCCNC(=O)c1cc(NC(=O)c2cc(NC(=O)c3ccc(N(CCCl)CCCl)cc3)cn2CCCCCCCCCCCn2cc(NC(=O)c3ccc(N(CCCl)CCCl)cc3)cc2C(=O)Nc2cc(C(=O)NCCCN(C)C)n(C)c2)cn1C is below 1 µM. Could you check?
Out: f

In: Hello, I'm reviewing records and need to know if C50 of CN(C)CCCNC(=O)c1cc(NC(=O)c2cc(NC(=O)c3ccc(N(CCCl)CCCl)cc3)cn2C)cn1C is below 1 µM. Could you check?
Out: f

In: Hello, I'm reviewing records and need to know if C50 of CN(C)CCCNC(=O)c1cc(NC(=O)c2cc(NC(=O)c3ccc(N(CCCl)CCCl)cc3)cn2CCCCCCCCCn2cc(NC(=O)c3ccc(N(CCCl)CCCl)cc3)cc2C(=O)Nc2cc(C(=O)NCCCN(C)C)n(C)c2)cn1C is below 1 µM. Could you check?
Out: f
